- System: Escherichia coli K-12 BW25113
- Protocol notes: relative growth (OD600 normalised to plate interquartile mean) (fraction); higher = less growth inhibition, active = 0.2 or less
- Test settings: 50 µM; LB; incubation time: overnight (16-24 h)
Among all 39,000 compounds or so, about 220 (0.56%) showed activity. The sample as a whole holds a higher share of actives than the screen did.
Thanks in advance; please answer with one of these: active, inactive

*Q* Please state the recorded outcome for this molecule: `COC1=C(OC)C(=O)C(CCCCCCCCCC[P+](c2ccccc2)(c2ccccc2)c2ccccc2)=C(C)C1=O`
*A* active

*Q* Request: `COc1ccc2c3c([nH]c2c1)[C@H](CO)N(C[C@]13CN(C1)C(=O)Cc1cccnc1)S(=O)(=O)c1ccc(cc1)C`
*A* inactive

*Q* Moving on to COc1ccc2cc1Oc1ccc(cc1)CC1c3c(cc4c(c3Oc3cc5c(cc3OC)CCN(C)C5C2)OCO4)CCN1C (centres undefined)
*A* inactive

*Q* Now the molecule `COc1cccc(OCc2ccc(Cn3nc(NC(=O)NCc4ccccc4OC)c4ccccc43)cc2)c1`
*A* inactive

*Q* Next record, please: `CCc1nc2c(OCC(=O)c3ccc(Cl)cc3Cl)cccn2c1N(C)C(=O)COc1ccccc1`
*A* inactive

*Q* Now give it for `COC1=C(OC)C(=O)C(CCCCCCCCCCO)=C(C)C1=O` too.
*A* inactive

*Q* Another molecule to look at: `COC(=O)C[C@@H]1CC[C@@H]2[C@@H](COc3ccc(NS(=O)(=O)c4ccccc4Cl)cc3C(=O)N2C)O1`
*A* inactive

*Q* Next: `C[C@@H]1CN([C@@H](C)CO)C(=O)CCCn2nncc2CO[C@@H]1CN(C)C(=O)c1ccc(N2CCN(C)CC2)cc1`
*A* inactive

*Q* Note, next up: `CC(C)(C)c1ccc(NC(=O)N[C@H]2CCCc3ccccc32)cc1`
*A* inactive

*Q* // query: `C[C@@H]1CN([C@@H](C)CO)C(=O)c2cc(NS(=O)(=O)c3ccc(F)cc3)ccc2O[C@@H](C)CCCCO[C@@H]1CN(C)C(=O)Nc1ccc2c(c1)OCO2`
*A* inactive

*Q* // repeat for COc1ccc2c(c1OC)C(=O)OC2C1c2c(cc3c(c2OC)OCO3)CCN1C.Cl (centres undefined) and report
*A* active

*Q* Another molecule to check: `Cc1noc(C)c1S(=O)(=O)Nc1ccc2c(c1)C(=O)N([C@@H](C)CO)C[C@@H](C)[C@@H](CN(C)S(=O)(=O)c1cccs1)O2`
*A* inactive

*Q* Entry `COc1ccc(-c2c(C)oc3ccc(Cl)cc23)cc1` please
*A* inactive

*Q* Same question, `COc1ccc(S(=O)(=O)N(C)C[C@H]2Oc3c(NS(=O)(=O)c4c(C)noc4C)cccc3C(=O)N([C@H](C)CO)C[C@H]2C)cc1` this time
*A* inactive

====

- System: Escherichia coli K-12 BW25113;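 also: Wild-type cells incubated without shaking, value is the mean of two biological replicates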
- Protocol notes: relative growth (OD600 normalised to plate interquartile mean) (fraction); higher = less growth inhibition, active = 0.2 or less
- Test settings: 50 µM; LB; incubation time: overnight (16-24 h)
Out of some 39,000 compounds screened, about 220 (0.56%) showed activity. The entries come from a sample that favours actives as a whole.
Endpoint: relative growth
# respond with the number and nothing more

*Q* Which value of relative growth has been reported for `COc1ccc(CN(C)C[C@@H]2OCCCC[C@H](C)Oc3ccc(NS(=O)(=O)c4ccc(OC)cc4)cc3C(=O)N([C@H](C)CO)C[C@H]2C)cc1` in the records?
*A* 0.994

*Q* Let us now turn to `Cc1noc(C)c1NC(=O)N(C)C[C@H]1Oc2ccc(NC(=O)Nc3ccc(C(F)(F)F)cc3)cc2CC(=O)N([C@H](C)CO)C[C@H]1C`
*A* 0.935

*Q* Another molecule to check: Cl.NCCCC(=O)O [gamma-AMINOBUTYRIC ACID HYDROCHLORIDE]
*A* 0.905

*Q* For `C[C@H](CO)N1C[C@H](C)[C@@H](CN(C)C(=O)NC2CCCCC2)Oc2ccc(NC(=O)Nc3cccc4ccccc34)cc2C1=O` then?
*A* 1.04

The reported measurements were obtained from the supplement of paper PMC9446081.
